B1: TPR t1 (parent)
chain: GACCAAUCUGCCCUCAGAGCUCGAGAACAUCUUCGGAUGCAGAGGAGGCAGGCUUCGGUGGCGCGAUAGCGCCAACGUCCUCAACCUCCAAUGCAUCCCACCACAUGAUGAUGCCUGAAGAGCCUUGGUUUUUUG

Variants of: B1
Assay method text: polymerase ribozyme fitness, log enrichment relative to wild type (log ratio); higher = more active; in vitro selection for triplet polymerase activity
// map polymerase ribozyme fitness (log ratio) onto a label; ranges class 1: < -4; class 2: ≥ -4 and < -2; class 3: ≥ -2

Worked set:
Residue codes	Assigned label
GACCAAUCUGCCCUCAGAGCUCGAGAACAUCUUCGGAUGCAGUGGAGGCAGGCUUCGGUGGCGCGAUAGCGCCAACGUCCUCAACCUCCAAUGCAUCCCACCACAUGAUGAUGCCUGAAGAGCAUUGGUUUUUUG [A43U C124A]	class 3
GACCAAUCUGCACUCAGAGCUCGAGAACAUCUUCGGAUGCAGAGGAGGCAGGUUUCGGUGGCGCGAUAGCGCAAACGUCCUCAACCUCCAAUGCAUCCCACCACAUGAUGAUGCCUGAAGAGCCUUGGUUUUUUG [C12A C53U C73A]	class 3
GACCAAUCUGCCCUUAGAGCUCGAGAACAUCUUCGGAUGCAGAGGAGGCAGGCGUCGGUGGCGCGAUAGCGCCAACGUCCUCAACCUCCAAUGCAUCCCACCACAUGAUGAUGCCUGAAGAGCCUUGGUUUUUUG [C15U U54G]	class 3
GACCAAUCUGCCCUCAGAGCUCGAGAACAUCUUCGGAUGCAGAGGAGGCAGGCUUCGGUGGCGCGAUAGCUCCAACGUCCUCAACCUCCAAUGCAUCCCACCACAUGAUGAUGCCUAAAGAGCCUUGGUCUUUUG [G71U G117A U130C]	class 3
GACCAAUCGGCCCUCAGAGCUCGAGAACAUCUUCGGAUGCAGAGGAGGCAGGCUUCGGUGGCGCGAUAGCGCCAACGUCCUCAACCUUCAAUCCAUCCCACCACAUGAUGAUGCCUGAAGAGCCUUGGUUUUUUG [U9G C88U G93C]	class 3
GACCGAUCUGCCCUCAGAGCUCGAGAACAUCUUCGGAUGCAGAGGAGGCAGGCUUCGGUGGCCCGAUAGCGCCAACGUCCUCAACCUCCAAUGCAUCCCACCACAUGAUGAUGCCUGAAGAGCCUUGGUUUUUUG [A5G G63C]	class 3
GACCAAUCUGCCCUCAGAGCUCGAGAACAUCUUCGGAUGCAGAGGAAGCAGGCUUCGGUGGCGCGAUAGCGCCAACGUCCUCAACCUCCAAUGCAUCCCACCACAUGAUGAUGCCUGAACAGCCUUGGUCUUUUG [G47A G120C U130C]	class 3
GCCCCAUCUGCCCUCAGAGCUCGAGAACAUCUUCGGAUGCAGAGGAGGCAGGCUUCGGUGGCGCGAUAGCGCCAACGUCCUCAACCUCCAAUGCAUCCCACCACAUGAUGAUGGCUGAAGAGCAUUGGUUUUUUG [A2C A5C C114G C124A]	class 2
GACCAAUCUGCACUCAGAGCUCGAGAACAUCUUCGGAUGCAGAGGAGGCAGGCUUCGAUGCCGCGAUAGCGCCAACGUUCUACACCUCCAAUGCAUCCCACCACAUGAUGAUGUCUGAAGAGCCUUGGUUUUUUG [C12A G58A G61C C79U C82A A83C C114U]	class 1
GACCAAUCUGCCCUCAGAGCUCGAGAACAUCUUCGGAUGCUGAGGAGGCAGGGUUCGGUGGCCCGAUAGCGUCAACAUCCUCAACCUCCAAUGCAUCCCACCACAUGAUGAUGCCUGAAGAGCCUUGGUUUUUUG [A41U C53G G63C C72U G77A]	class 2

// query Sort into band: GACCAAUCUGCCCUCUGAGCUCGAGAACAUCUUCGGGUGCAGAGGAGGCAGGCUUCGGUGGCGCGAUAGCGCCAACGUCCUCAACCUCCAAUGCAUCCCACCACAUGAUGAUACCUGAAGAGCCUUGGUUUUUUG [A16U A37G G113A]
// result class 1

// query Sort into band: GACCAAUCCGCCCUCAGAGCUCGAGGUCAUCUUCGGAUGCAGAGGAGGCAGGCAUCGGUGGCGCGAUAGCGCCGACGUCCUGAACCUCCAAUGCAUCCCACCACAUGAUGAUGCCUGAAGAGCCUUGGUUUUUUG [U9C A26G A27U U54A A74G C82G]
// result class 1

// query Sort into band: GACCAAUCUGCCCUCAGAGCUGGAGAACCUCUUCGGAUGAAGAGGAGGCAGGCUUCGGUGGCGCGAUAGCGCCAACGUCCUCAACCUCCAAUGCAUCCCACCACAUGAUGAUGCCUGAACAGCCUUGGUUUUUUG [C22G A29C C40A G120C]
// result class 1

// query Sort into band: GACCAAUCUGCACUCAGAGCUCGAGAACAUCUUCGGAUGCAGAGGAGGCAGGCUUCGGUGGCGCGAUAGCGCCAACGUCCUCAACCUCCAAUGCAUCCCACCACAUGAUGAUACCUGAAGAGCCUUGGUUUUUUG [C12A G113A]
// result class 2

// query Sort into band: GACCAAUCAGCCCUCAGAGCUCGAGAACAUCUUCGGAUGCAGAGGAGGCAGGCUUAGGUGGCGCGUUAGCGCCAACGUCCUCAACCUCCAAUGCAUCCCACCACAUGAUGAUGCCUGAAGAGCCUUGGUUUUUUG [U9A C56A A66U]
// result class 3
